System: voltage-gated calcium channel (Mus musculus)
Experiment: Antagonist activity at voltage-gated calcium channels in C57/BL6 mouse cerebellar granule cells assessed as inhibition of KCl-induced voltage dependent calcium entry at 10 uM by fura-2-based assay
Calls of active or inactive are those of the source. The rule behind the calls is not given here.
test readout: inhibition

CC(C)OC(=O)c1cnn(-c2ccc(-n3cc(-c4cccc(C(=O)O)c4)nn3)cc2)c1C(F)(F)F ... inactive
CCCC(C)OC(=O)c1cnn(-c2ccc(-n3cc(-c4cccc(C(=O)O)c4)nn3)cc2)c1C(F)(F)F (stereo not given) ... inactive
O=C(O)c1ccc(-c2cn(-c3ccc(-n4nc(C(F)(F)F)cc4C(F)(F)F)cc3)nn2)cc1 ... inactive
CCOC(=O)c1cnn(-c2ccc(-n3cc(-c4cccc(C(=O)O)c4)nn3)cc2)c1C(F)(F)F ... inactive
CCOC(=O)c1cnn(-c2ccc(-c3cn(-c4ccc(Cl)cc4)nn3)cc2)c1C(F)(F)F ... inactive
